Let's look at some compounds and their measured Activity.
- System: Plasma
- method.notes: Haemostatic activity in human plasma assessed as change in rate of activated partial thromboplastin time at 100 uM after 3 mins relative to control
- Assay type: functional
Report the value in % with no unit label.

{"compound": "Nc1nccs1", "units.label": "%", "Activity": 2.53}
{"compound": "COc1cc(/C=C/C(=O)Nc2nccs2)ccc1OC(C)=O", "units.label": "%", "Activity": -1.85}
{"compound": "CC(=O)Oc1ccc(/C=C/C(=O)Nc2nccs2)cc1", "units.label": "%", "Activity": -2.45}

Prompt line: Let me know recorded Activity for COc1ccc(/C=C/C(=O)Nc2nccs2)cc1 , thanks.
Response line: -0.71

Prompt line: Let me know recorded Activity for CC(=O)Oc1ccccc1/C=C/C(=O)Nc1nccs1 , thanks.
Response line: -6.12

Prompt line: Let me know recorded Activity for O=C(CCc1ccccc1)Nc1nccs1 , thanks.
Response line: 0.28

Prompt line: Let me know recorded Activity for COc1ccc(/C=C/C(=O)Nc2nccs2)cc1OC , thanks.
Response line: 1.97

Prompt line: Let me know recorded Activity for COc1cc(/C=C/C(=O)Nc2nccs2)cc(OC)c1OC , thanks.
Response line: 1.69
